# experimental target: Avi-KRAS G12V (1-169) GppNHp/RAF1 RBD-3xFLAG (52-151) (Homo sapiens, UniProt P01116, G12V)
# Construct: 50 nM Avi-KRAS G12V (1-169) GppNHp
# Sequence (P01116 1-169 isoform P01116-2 G12V): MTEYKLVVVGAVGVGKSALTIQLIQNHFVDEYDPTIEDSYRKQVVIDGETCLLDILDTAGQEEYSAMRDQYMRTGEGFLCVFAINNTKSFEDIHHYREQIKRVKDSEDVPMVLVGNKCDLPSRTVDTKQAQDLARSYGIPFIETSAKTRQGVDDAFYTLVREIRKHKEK
# assay details: RAS-effector PPI HTRF disruption assay, Raf1-GppNHp-KRAS G12V
# Format: biochemical
# maps each entry to its IC50

// below: answered compounds
* N#Cc1c(N)sc2c(F)ccc(-c3ccc4c(O[C@@H]5CCNC5)nc(OC[C@@]56CCCN5C[C@H](F)C6)nc4c3F)c12 | > 10 µM
* C[C@@H]1CNCC1Oc1nc(OC[C@@]23CCCN2C[C@H](F)C3)nc2c(F)c(-c3ccc(F)c4sc(N)nc34)c(C(F)(F)F)cc12 (stereo partly drawn) [Compound 16] | 1 to 10 µM

Now consider a different compound.
Q: Fill in: IC50 on Avi-KRAS G12V (1-169) GppNHp/RAF1 RBD-3xFLAG (52-151) (Homo sapiens, UniProt P01116, G12V), entry CC1(C)NCCC1Oc1nc(OC[C@@]23CCCN2C[C@H](F)C3)nc2c(F)c(-c3ccc(F)c4sc(N)c(C#N)c34)c(C(F)(F)F)cc12 (stereo partly drawn)
A: 0.1 to 1 µM

====

# experimental target: Avi-KRAS G12D (1-169) GppNHp/RAF1 RBD-3xFLAG (52-151) (Homo sapiens, UniProt P01116, G12D)
# Construct: 100 nM Avi-KRAS G12D (1-169) GppNHp
# Sequence (P01116 1-169 isoform P01116-2 G12D): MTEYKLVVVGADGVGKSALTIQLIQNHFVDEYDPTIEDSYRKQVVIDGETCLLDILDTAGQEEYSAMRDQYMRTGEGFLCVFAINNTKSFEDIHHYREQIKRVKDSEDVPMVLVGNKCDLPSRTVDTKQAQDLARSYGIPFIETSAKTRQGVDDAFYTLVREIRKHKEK
# assay details: RAS-effector PPI HTRF disruption assay, Raf1-GppNHp-KRAS G12D
pIC50: −log10 of the molar value.
# maps each entry to its pIC50

// below: answered compounds
* C[C@H]1NCC[C@H]1Oc1nc(OC[C@@]23CCCN2C[C@H](F)C3)nc2c(F)c(-c3ccc(F)c4sc(N)c(C#N)c34)ncc12 [Compound 98] | 5.00 to 6.00
* N#Cc1c(-c2ccc(F)c3sc(N)c(C#N)c23)c(Cl)cc2c(O[C@H]3CNC[C@H]3F)nc(OC[C@@]34CCCN3C[C@H](F)C4)nc12 [Compound 92] | 5.00 to 6.00
* COC[C@H]1NCC[C@H]1Oc1nc(OC[C@@]23CCCN2C[C@H](F)C3)nc2c(F)c(-c3ccc(F)c4sc(N)c(C#N)c34)ccc12 [Compound 91] | < 5.00
* C[C@H]1NCC[C@H]1Oc1nc(OC[C@@]23CCCN2C[C@H](F)C3)nc2cc(-c3ccc(F)c4sc(N)nc34)c(C(F)(F)F)cc12 [Compound 35] | 6.00 to 7.00
* C[C@@H]1C[C@@H](Oc2nc(OC[C@@]34CCCN3C[C@H](F)C4)nc3cc(-c4ccc(F)c5sc(N)c(C#N)c45)c(C(F)(F)F)nc23)CN1 [Compound 95] | < 5.00

Now consider a different compound.
Q: Consider the compound Nc1nc2c(-c3c(C(F)(F)F)cc4c(OC5CC6CC[C@H](C5)N6)nc(OCC56CCCN5CCC6)nc4c3F)ccc(F)c2s1 (stereo partly drawn) [Compound 26] . State its measured pIC50.
A: ≥ 7.00

====

# maps each entry to its IC50
# experimental target: Avi-KRAS G12D/Q25A (1-169) GppNHp/3xFLAG-PI3KCA (157-299) (Homo sapiens, UniProt P01116, G12D/Q25A)
# Construct: 375 nM Avi-KRAS G12D/Q25A (1-169) GppNHp
# Sequence (P01116 1-169 isoform P01116-2 G12D/Q25A): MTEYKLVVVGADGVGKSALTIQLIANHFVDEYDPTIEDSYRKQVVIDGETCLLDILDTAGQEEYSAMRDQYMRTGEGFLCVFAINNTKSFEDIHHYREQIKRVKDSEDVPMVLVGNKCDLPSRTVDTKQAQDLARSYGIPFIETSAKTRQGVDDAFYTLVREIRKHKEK
# assay details: RAS-effector PPI HTRF disruption assay, PI3KCA-GppNHp-KRAS G12D/Q25A

// below: answered compounds
* Nc1nc2c(-c3c(C(F)(F)F)cc4c(O[C@H]5CNCC5(F)F)nc(OC[C@@]56CCCN5C[C@H](F)C6)nc4c3F)ccc(F)c2s1 (atropisomer, axis not shown) [Compound 29] | > 10000 nM
* Nc1nc2c(-c3c(C(F)(F)F)cc4c(O[C@H]5CNC[C@@H]5F)nc(OC[C@@]56CCCN5C[C@H](F)C6)nc4c3Cl)ccc(F)c2s1 | 1000 to 10000 nM
* C[C@H]1NCC[C@@H]1Oc1nc(OC[C@@]23CCCN2C[C@H](Cl)C3)nc2c(F)c(-c3ccc(F)c4sc(N)c(C#N)c34)c(C(F)(F)F)cc12 | 100 to 1000 nM
* C[C@H]1CNCC1Oc1nc(OC[C@@]23CCCN2C[C@H](F)C3)nc2c(F)c(-c3ccc(F)c4scnc34)c(C(F)(F)F)cc12 (some centres unmarked) | > 10000 nM
* C[C@@H]1CNCC1Oc1nc(OC[C@@]23CCCN2C[C@H](F)C3)nc2c(F)c(-c3ccc(F)c4scnc34)c(C(F)(F)F)cc12 (some centres unmarked) | > 10000 nM

Now consider a different compound.
Q: Consider the compound N#Cc1c(N)sc2c(F)ccc(-c3cc4nc(OC[C@@]56CCCN5C[C@H](F)C6)nc(O[C@H]5CNC[C@H]5F)c4cc3C(F)(F)F)c12 . State its measured IC50.
A: 100 to 1000 nM

====

# experimental target: Avi-KRAS WT (1-169) GppNHp/RAF1 RBD-3xFLAG (52-151) (Homo sapiens, UniProt P01116)
# Construct: 50 nM Avi-KRAS WT (1-169) GppNHp
# Sequence (P01116 1-169 isoform P01116-2): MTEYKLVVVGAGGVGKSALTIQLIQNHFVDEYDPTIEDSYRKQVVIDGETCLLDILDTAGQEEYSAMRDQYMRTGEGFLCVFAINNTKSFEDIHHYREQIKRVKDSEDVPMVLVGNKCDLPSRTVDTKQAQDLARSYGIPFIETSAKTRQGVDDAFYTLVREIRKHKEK
# assay details: RAS-effector PPI HTRF disruption assay, Raf1-GppNHp-KRAS WT
pIC50: −log10 of the molar value.
outcome measure: pIC50

Q: Consider the compound Nc1nc2c(-c3c(C(F)(F)F)cc4c(O[C@@H]5CCNC5)nc(OC[C@@]56CCCN5C[C@H](F)C6)nc4c3Cl)ccc(F)c2s1 (atropisomer, axis not shown) [Compound 11] . State its measured pIC50.
A: < 5.00

Q: Consider the compound COC[C@H]1C[C@@H](Oc2nc(OC[C@@]34CCCN3C[C@H](F)C4)nc3c(F)c(-c4ccc(F)c5sc(N)c(C#N)c45)c(C(F)(F)F)cc23)CN1 (atropisomer, axis not shown) [Compound 80] . State its measured pIC50.
A: 6.00 to 7.00

Q: Consider the compound N#Cc1c(N)sc2c(F)ccc(-c3c(F)cc4c(O[C@@H]5CCNC5)nc(OC[C@@]56CCCN5C[C@H](F)C6)nc4c3F)c12 [Compound 77] . State its measured pIC50.
A: < 5.00

Q: Consider the compound C[C@@H]1C[C@@H](Oc2nc(OC[C@@]34CCCN3C[C@H](F)C4)nc3c(F)c(-c4ccc(F)c5sc(N)nc45)c(C(F)(F)F)cc23)CN1 (atropisomer, axis not shown) [Compound 21] . State its measured pIC50.
A: < 5.00

Q: Consider the compound C[C@H]1C[C@H](Oc2nc(OC[C@@]34CCCN3C[C@H](F)C4)nc3c(F)c(-c4ccc(F)c5sc(N)c(C#N)c45)c(Cl)cc23)CN1 [Compound 54] . State its measured pIC50.
A: 6.00 to 7.00

====

# experimental target: Avi-KRAS WT (1-169) GppNHp/RAF1 RBD-3xFLAG (52-151) (Homo sapiens)
# Construct: 50 nM Avi-KRAS WT (1-169) GppNHp
# assay details: RAS-effector PPI HTRF disruption assay, Raf1-GppNHp-KRAS WT
pIC50: −log10 of the molar value.
outcome measure: pIC50

* N#Cc1c(N)sc2c(F)ccc(-c3c(Cl)cc4c(O[C@@H]5CN[C@@H](CO)C5)nc(OC[C@@]56CCCN5C[C@H](F)C6)nc4c3F)c12 (atropisomer, axis not shown) [Compound 68] | < 5.00
* C[C@H]1NCC[C@H]1Oc1nc(OC[C@@]23CCCN2C[C@H](F)C3)nc2c(F)c(-c3ccc(F)c4sc(N)c(C#N)c34)c(C(F)(F)F)cc12 (single isomer, unassigned) [Compound 74] | < 5.00
* N#Cc1c(N)sc2c(F)ccc(-c3ncc4c(O[C@H]5CNC[C@H]5F)nc(OC[C@@]56CCCN5C[C@H](F)C6)nc4c3F)c12 [Compound 51] | < 5.00
* C[C@@H]1NCC[C@H]1Oc1nc(OC[C@@]23CCCN2C[C@H](F)C3)nc2c(F)c(-c3ccc(F)c4sc(N)nc34)c(C(F)(F)F)cc12 (atropisomer, axis not shown) [Compound 8] | 5.00 to 6.00
* COC[C@H]1NCC[C@H]1Oc1nc(OC[C@@]23CCCN2C[C@H](F)C3)nc2c(F)c(-c3ccc(F)c4sc(N)c(C#N)c34)ccc12 [Compound 91] | < 5.00

Q: Consider the compound C[C@@H]1C[C@@H](Oc2nc(OC[C@@]34CCCN3C[C@H](F)C4)nc3c(F)c(-c4ccc(F)c5sc(N)c(C#N)c45)ccc23)CN1 [Compound 56] . State its measured pIC50.
A: 5.00 to 6.00

Q: Consider the compound N#Cc1c(N)sc2c(F)ccc(-c3ccc4c(O[C@H]5CNC[C@H]5F)nc(OC[C@@]56CCCN5C[C@H](F)C6)nc4c3F)c12 [Compound 66] . State its measured pIC50.
A: 5.00 to 6.00

Q: Consider the compound C[C@@H]1C[C@@H](Oc2nc(OC[C@@]34CCCN3C[C@H](F)C4)nc3cc(-c4ccc(F)c5sc(N)c(C#N)c45)c(C(F)(F)F)nc23)CN1 [Compound 94] . State its measured pIC50.
A: 5.00 to 6.00
